Entries and their protein stability index
B1: FAM107A (parent)
chain: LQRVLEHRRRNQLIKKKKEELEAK

variants of: B1; assay: protein stability index of a GFP-peptide fusion (GPS, HEK-293T) (PSI 1-6); higher = more stable; conditions: c terminus: a fixed tail appended;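 also: lentivirally expressed fusions sorted by FACS into six bins by GFP to DsRed ratio, PSI derived from sequencing read proportions per bin multiplied by bin number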
Answer with a bare number; do not write a unit.

Would you please look over these solved cases?
* E22P | 2.77
* E22Q | 3.59
* E20P | 3.74
* Q12I | 3.74
* K15D | 3.61

Q) Suppose we examine the variant K17T ; what protein stability index value has been reported?
A) 4.38

Q) Same question for V4P please.
A) 4.66

Q) For L1A then?
A) 4.61

Q) Moving on to the next variant: E20I
A) 3.35

Q) Same thing, different variant: N11P
A) 3.24

Q) Follow-up entry: K24L
A) 3.04
